Cannabinoid receptor 1 (Rattus norvegicus) data, read-out Ki
Sequence (P20272 whole entry): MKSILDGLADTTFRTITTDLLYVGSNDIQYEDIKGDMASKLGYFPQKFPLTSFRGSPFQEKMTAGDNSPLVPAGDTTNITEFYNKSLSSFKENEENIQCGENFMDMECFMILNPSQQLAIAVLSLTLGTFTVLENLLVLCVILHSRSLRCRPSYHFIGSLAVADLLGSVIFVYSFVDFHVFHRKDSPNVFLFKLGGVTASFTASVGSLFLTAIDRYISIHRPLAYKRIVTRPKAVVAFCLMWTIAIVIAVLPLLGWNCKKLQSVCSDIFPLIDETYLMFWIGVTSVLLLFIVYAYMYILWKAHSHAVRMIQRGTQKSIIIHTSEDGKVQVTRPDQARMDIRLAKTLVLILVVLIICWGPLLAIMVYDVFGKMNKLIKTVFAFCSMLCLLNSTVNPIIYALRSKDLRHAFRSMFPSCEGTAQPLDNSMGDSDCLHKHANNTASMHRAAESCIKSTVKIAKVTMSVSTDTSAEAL

[[record]]
molecule = "CN1CCCCC1Cn1cc(C(=O)c2cccc3ccccc23)c2ccccc21 (configuration not stated)"
target_or_system = "Cannabinoid receptor 1 (Rattus norvegicus)"
parameter_measured = "Ki"
result = "0.75 nM"

[[record]]
molecule = "Cc1c(C(=O)c2ccccc2I)c2ccccc2n1CC1CCCCN1C (single isomer, unassigned; (+))"
target_or_system = "Cannabinoid receptor 1 (Rattus norvegicus)"
parameter_measured = "Ki"
result = "6.7 nM"


Query the reported Ki for Cannabinoid receptor 1 (Rattus norvegicus); item: Cc1c(C(=O)c2ccccc2I)c2ccccc2n1CC1CCCCN1C (single isomer, unassigned; (-))
1200 nM

Query the reported Ki for Cannabinoid receptor 1 (Rattus norvegicus); item: CN1CCCCC1Cn1cc(C(=O)c2cccc3ccccc23)c2ccc(I)cc21 (configuration not stated)
18 nM

====

target_or_system: Cannabinoid receptor 1 (Mus musculus)
run_description: Binding affinity towards mouse hippocampal membranes cannabinoid receptor 1 using [3H]SR-141,716A
parameter_measured: Ki (nM)
State just the number; it will be interpreted in nM.

Query the reported Ki for Cannabinoid receptor 1 (Mus musculus); item: CN1CCCCC1Cn1cc(C(=O)c2ccccc2I)c2ccccc21 (stereo unspecified)
1.3

====

target_or_system: Cannabinoid receptor 1 (Mus musculus, UniProt P47746)
Sequence (P47746 whole entry): as the sequence (P20272 whole entry) above, with E95D counted along it
run_description: Binding affinity towards mouse hippocampal membranes cannabinoid receptor 1 using [131I]-(R)-8
parameter_measured: Ki
Just so you know, I need the unit written after the number.

For CN1CCCCC1Cn1cc(C(=O)c2ccccc2I)c2ccccc21 (stereo unspecified) , what is its reported Ki?
0.2 nM

====

target_or_system: Cannabinoid receptor 2 (Mus musculus)
Sequence (P47936 whole entry): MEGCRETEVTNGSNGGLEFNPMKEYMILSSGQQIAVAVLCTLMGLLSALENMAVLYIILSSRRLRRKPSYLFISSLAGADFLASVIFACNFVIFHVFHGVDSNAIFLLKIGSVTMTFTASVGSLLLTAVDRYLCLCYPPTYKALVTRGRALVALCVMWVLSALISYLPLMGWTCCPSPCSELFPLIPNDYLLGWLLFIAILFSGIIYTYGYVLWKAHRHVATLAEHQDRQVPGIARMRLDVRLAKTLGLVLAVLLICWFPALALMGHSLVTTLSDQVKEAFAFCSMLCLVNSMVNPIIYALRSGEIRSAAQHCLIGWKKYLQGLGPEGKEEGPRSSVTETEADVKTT
# note: boundary value 80 nM maps to f; Ki below it maps to t

See these solved cases before continuing.
[[record]]
molecule = "CN1CCCCC1Cn1cc(C(=O)c2cccc3ccccc23)c2ccccc21 (stereo not drawn)"
class_assignment = "t"

[[record]]
molecule = "CN1CCCCC1Cn1cc(C(=O)c2ccc(I)c3ccccc23)c2ccccc21 (stereo not drawn)"
class_assignment = "t"

[[record]]
molecule = "Cc1c(C(=O)c2ccccc2I)c2ccccc2n1CC1CCCCN1C (single isomer, unassigned; (+))"
class_assignment = "t"

[[record]]
molecule = "Cc1c(C(=O)c2ccccc2I)c2ccccc2n1CC1CCCCN1C (stereo in doubt; 5)"
class_assignment = "t"


Could you please tell me whether Ki recorded for Cc1c(C(=O)c2ccccc2I)c2ccccc2n1CC1CCCCN1C (single isomer, unassigned; (-)) is less than 80 nM?
f

Could you please tell me whether Ki recorded for Cc1c(C(=O)c2ccc(I)cc2)c2ccccc2n1CC1CCCCN1C (stereo not drawn) is less than 80 nM?
f

Could you please tell me whether Ki recorded for Cc1c(C(=O)c2cccc(I)c2)c2ccccc2n1CC1CCCCN1C (stereo not drawn) is less than 80 nM?
f

Could you please tell me whether Ki recorded for CN1CCCCC1Cn1cc(C(=O)c2cccc3ccccc23)c2ccc(I)cc21 (stereo not drawn) is less than 80 nM?
t

====

target_or_system: UniProtKB P20272
parameter_measured: Ki (µM)
State just the number; it will be interpreted in µM.

[[record]]
compound = "CN1CCCC[C@H]1Cn1cc(C(=O)c2ccccc2I)c2ccccc21"
target_or_system = "UniProtKB P20272"
measured_number = 0.56

[[record]]
compound = "Cc1c(C(=O)c2cccc(I)c2)c2ccccc2n1CC1CCCCN1C (stereo not drawn)"
target_or_system = "UniProtKB P20272"
measured_number = 2.9


For Cc1c(C(=O)c2ccccc2I)c2ccccc2n1CC1CCCCN1C (stereo in doubt; 5) , what is its reported Ki?
0.034
